half-life: recorded values
# assay: Half-life in mouse liver microsomes
# Format: in vitro ADME
# condition_info: read-out: t1/2 (min) mouse liver microsomes
Return type: number; implicit unit min.

Some compounds with known half-life results, for comparison:
structure_string: O=C(NC1CCC1)c1ccc2nc(-c3cccc(NS(=O)(=O)NCCN4CCCCC4)c3)cn2c1
half-life [min]: 9.98
--
structure_string: O=C(CCN1CCCCC1)Nc1cccc(-c2cn3cc(C(=O)NC4CCC4)ccc3n2)c1
half-life [min]: 34.1

query: Could you share which half-life value was measured for "O=C(CN1CCCCC1)Nc1cccc(-c2cn3cc(C(=O)NC4CCC4)ccc3n2)c1" ?
result: 6.16

query: Using the record for "O=C(NCCN1CCCCC1)Nc1cccc(-c2cn3cc(C(=O)NC4CCC4)ccc3n2)c1" , report its half-life.
result: 85.9

query: Entry "O=C(CCN1CCOCC1)Nc1cccc(-c2cn3cc(C(=O)NC4CCC4)ccc3n2)c1" has what half-life?
result: 19.9

query: If you can, please state the reported half-life value of "O=C(CCN1CCCCC1=O)Nc1cccc(-c2cn3cc(C(=O)NC4CCC4)ccc3n2)c1" .
result: 3.46

query: Recorded half-life for "O=C(NCCN1CCCCC1)c1cccc(-c2cn3cc(C(=O)NC4CCC4)ccc3n2)c1" , please?
result: 28

query: Sample "O=C(NC1CCC1)c1ccc2nc(-c3cccc(S(=O)(=O)NCCCN4CCCCC4)c3)cn2c1" — what was its half-life?
result: 9.7

query: For the compound "COC1CCN(CCNS(=O)(=O)Nc2cccc(-c3cn4cc(C(=O)NC5CCC5)ccc4n3)c2)CC1" , what half-life is on record?
result: 5.23

====

# assay: Half-life in mouse liver microsomes
# Assay type: in vitro ADME
# condition_info: without NADPH, read-out: t1/2 mouse (min liver microsomes (without NADPH))
reported_endpoint: half-life (h)
A number alone suffices; assume h.

query: Record request: half-life value, item O=C(CCCCN1CCCCC1)Nc1cccc(-c2cn3cc(C(=O)NC4CCC4)ccc3n2)c1 [Compound 103]
result: 0.269

query: Return reported half-life; argument: CC1CCN(CCNS(=O)(=O)Nc2cccc(-c3cn4cc(C(=O)NC5CCC5)ccc4n3)c2)CC1 [Compound 100]
result: 7.72

query: Which measured half-life value corresponds to CC1(C)CCN(CCNS(=O)(=O)Nc2cccc(-c3cn4cc(C(=O)NC5CCC5)ccc4n3)c2)CC1 [Compound 101] ?
result: 6.76

query: Can you share its half-life? I mean this compound: COC1CCN(CCNS(=O)(=O)Nc2cccc(-c3cn4cc(C(=O)NC5CCC5)ccc4n3)c2)CC1 [Compound 94]
result: 12.9

query: Endpoint output: half-life of O=C(NC1CCC1)c1ccc2nc(-c3cccc(NS(=O)(=O)NCCN4CCCCC4=O)c3)cn2c1 [Compound 95] . Value?
result: 8.41

query: Any idea what half-life was measured for O=C(CCN1CCCCC1)Nc1cccc(-c2cn3cc(C(=O)NC4CCC4)ccc3n2)c1 [Compound 102] ?
result: 2.29

====

# system_name: ENL YEATS domain (association with H3K27cr) (Homo sapiens, UniProt Q03111)
# Sequence (Q03111 1-148): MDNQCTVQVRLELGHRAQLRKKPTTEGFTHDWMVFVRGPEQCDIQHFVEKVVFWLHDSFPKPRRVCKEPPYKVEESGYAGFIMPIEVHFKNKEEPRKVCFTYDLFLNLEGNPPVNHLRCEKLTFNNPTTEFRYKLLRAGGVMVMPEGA
# assay: biochemical
# condition_info: ENL (YEATS)-H3K27cr HTRF (IC50, μM), Table 2
reported_endpoint: IC50 (µM)
Use µM as the unit, but write only the number.

molecule: O=C(NC1CCC(O)CC1)c1ccc2nc(-c3ccc(F)cc3)cn2c1 (centres unmarked)
IC50 [µM]: 7

molecule: CC(C)NC(=O)c1ccc2nc(-c3cccc(NS(=O)(=O)NCCc4cccs4)c3)cn2c1
IC50 [µM]: 1.36

molecule: O=C(NC1CC(CO)C1)c1ccc2nc(-c3ccccc3)cn2c1 (centres unmarked)
IC50 [µM]: 21.3

query: State the recorded IC50 for this entry: "CCc1ccc(-c2cn3cc(C(=O)NC4CC4)ccc3n2)cc1"
result: 5

====

# system_name: ENL YEATS domain (association with H3K27cr) (Homo sapiens, UniProt Q03111)
# assay: biochemical
# condition_info: ENL (YEATS)-H3K27cr HTRF (IC50, μM), Table 2
reported_endpoint: IC50 (µM)
# unit: µM | format: bare number

molecule: Cc1ccccc1-c1cn2cc(C(=O)NC(C)C)ccc2n1
result: 33

molecule: Cc1ccc(-c2cn3cc(C(=O)NC(C)c4cccnc4)ccc3n2)cc1 (centres unmarked)
result: 10

molecule: CC(C)NC(=O)c1ccc2nc(-c3cccc(NS(=O)(=O)NCCCCO)c3)cn2c1 [Compound 43]
result: 0.47

molecule: O=C(NC1CCC1)c1ccc2nc(-c3cccc(S(=O)(=O)NCCN4CCCCC4)c3)cn2c1
result: 0.635

molecule: CC(C)NC(=O)c1ccc2nc(-c3cccc(C#N)c3)cn2c1
result: 4.5

molecule: O=C(NC1CCC1)c1ccc2nc(-c3cccc(NS(=O)(=O)NCCc4c[nH]cn4)c3)cn2c1
result: 0.1

molecule: CC(C)NC(=O)c1ccc2nc(-c3cccc(N=S(=O)(F)N4CCC[C@@H]4C(=O)O)c3)cn2c1 (some centres unmarked)
result: 0.61

molecule: O=C(NC1CCC1O)c1ccc2nc(-c3ccccc3)cn2c1 (centres unmarked)
result: 36

query: Looking for the measured IC50 of CC1CCCCN1CCNS(=O)(=O)Nc1cccc(-c2cn3cc(C(=O)NC4CCC4)ccc3n2)c1 (centres unmarked) , can you help?
result: 0.163

query: # lookup: IC50 of "Cc1cccc(-c2cn3cc(C(=O)NC(C)C)ccc3n2)c1"
result: 4.8

query: Look up IC50: "O=C(NC1CCC1)c1ccc2nc(-c3ccccc3)cn2c1"
result: 0.506

query: # input molecule: CC1CC(NC(=O)c2ccc3nc(-c4ccccc4)cn3c2)C1 (centres unmarked) ; wanted: its IC50
result: 4.6

query: # input molecule: "O=C(NC1CC1)c1ccc2nc(-c3ccccc3)cn2c1" ; wanted: its IC50
result: 9

query: Item under review: "O=C(N[C@@H]1CCc2ccccc21)c1ccc2nc(-c3ccccc3)cn2c1" . Reported IC50?
result: 2.29

query: Quick check: IC50 of "CO[C@@H]1CC[C@H]1NC(=O)c1ccc2nc(-c3ccccc3)cn2c1" ?
result: 61

query: Could you tell me which IC50 is on file for "COC[C@@H]1CC[C@@H]1NC(=O)c1ccc2nc(-c3ccccc3)cn2c1" ?
result: 58

query: What value of measured IC50 is listed for "O=C(CCN1CCOCC1)Nc1cccc(-c2cn3cc(C(=O)NC4CCC4)ccc3n2)c1" ?
result: 0.306

query: State the recorded IC50 for this entry: "CC(C)NC(=O)c1ccc2nc(-c3ccc(CN)cc3)cn2c1"
result: 3.72

query: Could you share which IC50 value was measured for "CC(C)NC(=O)c1ccc2nc(-c3ccncc3)cn2c1" ?
result: 4.1

query: Which IC50 value is on record for "CC(C)NC(=O)c1ccc2nc(-c3cccc(N)c3)cn2c1" ?
result: 10.7

query: Tell me the measured IC50 of "COc1ccc(-c2cn3cc(C(=O)NC(C)C)ccc3n2)cc1" , please.
result: 1.3

query: Looking for the measured IC50 of "CC(C)NC(=O)c1ccc2nc(-c3cccc(NS(=O)(=O)NCCc4ccc(S(N)(=O)=O)cc4)c3)cn2c1" , can you help?
result: 0.51

query: // lookup IC50 for "COC[C@@H]1CC[C@H]1NC(=O)c1ccc2nc(-c3ccccc3)cn2c1"
result: 13

query: For the molecule "C#C[C@H]1C[C@@H](NC(=O)c2ccc3nc(-c4ccccc4)cn3c2)C1" , what IC50 is on record?
result: 6

query: Need IC50, item "O=C(O)COC1CCN(CCC(=O)Nc2cccc(-c3cn4cc(C(=O)NC5CCC5)ccc4n3)c2)CC1"
result: 0.243

query: Quick one: IC50 for "CC1CCN(CCNS(=O)(=O)Nc2cccc(-c3cn4cc(C(=O)NC5CCC5)ccc4n3)c2)CC1" ?
result: 0.029

query: What value of IC50 has been reported for the following molecule? "CC(C)NC(=O)c1ccc2nc(-c3cccc(NS(=O)(=O)NCCC(N)=O)c3)cn2c1"
result: 0.52

====

# system_name: ENL YEATS domain (association with H3K27cr) (Homo sapiens, UniProt Q03111)
# assay: biochemical
# condition_info: ENL (YEATS)-H3K27cr HTRF (IC50, μM), Table 1
Please respond with 1 (yes) when measured IC50 is strictly beneath 0.3 µM, and with 0 (no) in all other cases.

Previously resolved entries follow.
molecule: CC(C)NC(=O)c1ccc2nc(-c3cccc(OC(F)(F)F)c3)cn2c1
qualitative_label: 0 (no)
//
molecule: O=C(NC1CCC(O)CC1)c1ccc2nc(-c3ccccc3)cn2c1 (stereo not drawn) [Compound 31]
qualitative_label: 0 (no)
//
molecule: Cc1ccccc1-c1cn2cc(C(=O)NC(C)C)ccc2n1
qualitative_label: 0 (no)
//
molecule: O=C(NC1CCC(O)CC1)c1ccc2nc(-c3ccccc3)cn2c1 (stereo not drawn) [Compound 2]
qualitative_label: 0 (no)
//
molecule: O=C(CN1CCCCC1)Nc1cccc(-c2cn3cc(C(=O)NC4CCC4)ccc3n2)c1
qualitative_label: 1 (yes)
//
molecule: C#C[C@H]1C[C@@H](NC(=O)c2ccc3nc(-c4ccccc4)cn3c2)C1
qualitative_label: 0 (no)
//
molecule: N#Cc1ccc(-c2cn3cc(C(=O)NC4CCC4)ccc3n2)cc1
qualitative_label: 0 (no)
//
molecule: CC(C)C1CC(NC(=O)c2ccc3nc(-c4ccccc4)cn3c2)C1 (stereo not drawn)
qualitative_label: 0 (no)

query: Find out if reported IC50 for "O=C(NC1CC2(CC2)C1)c1ccc2nc(-c3ccccc3)cn2c1" is less than 0.3 µM
result: 0 (no)

query: Take the molecule "CC(C)NC(=O)c1ccc2nc(-c3ccc(N)cc3)cn2c1" and say whether its IC50 is less than 0.3 µM.
result: 0 (no)

query: Hi there! Is IC50 for "CC(C)NC(=O)c1ccc2nc(-c3cccc(C#N)c3)cn2c1" below 0.3 µM, do you know?
result: 0 (no)

query: Is IC50 strictly under 0.3 µM for the entry "O=C(NC1CCC1)c1ccc2nc(-c3cccc(NS(=O)(=O)CCN4CCCCC4)c3)cn2c1" ?
result: 1 (yes)

Source listed as patent US20220274980A1.
